- Target or system: T1, human GLP-1 receptor (human, UniProt P43220 24-463)
- T1 construct: whole, on cells
- Assay details: 125I-GLP-1 displacement, membranes of CHOK1 cells expressing human GLP-1 receptor
Measured endpoint: IC50 (nM)
Report only the number, with the unit nM understood.

HGEGTFTSDVSSYLEEQAAXEFIAWLVKGRG (ornithine at position 26 (GLP-1 numbering; residue 20 of the entry); side-chain cyclic lactam between Glu22 and Orn26; C-terminal amide, Not pegylated) [cycloE22-O26 (SEQ ID NO: 69)] has a reported IC50 of 3.7

The reported measurements were obtained from patent US20100048468A1.
